test system: HL-60, SK-MEL-28, U937; assay: Protease release assay inhibitor/adjuncts survey with Ala-Ala-Phe-AMC; format: cell-based; details: extent of the effect on release activity, in words
Text: […]

# Compound, Comments
data = [
    ("NCCc1ccc(S(=O)(=O)F)cc1 [AEBSF, 4-(2-Aminoethyl)benzenesulfonyl fluoride]", "Strong"),
    ("O=S(=O)(F)Cc1ccccc1 [PMSF, Phenylmethanesulfonyl fluoride]", "Strong"),
    ("O=c1oc(Cl)c(Cl)c2ccccc12", "Strong"),
]
